measurement.target: T1, human IL-23 (human, UniProt P29460 23-328; Q9NPF7 20-189)
T1 construct: Recombinant (Ebioscience); HIS-tagged in flow cytometry, biotinylated in some assays; also called hIL-23; rhIL-23
T1 sequence 1: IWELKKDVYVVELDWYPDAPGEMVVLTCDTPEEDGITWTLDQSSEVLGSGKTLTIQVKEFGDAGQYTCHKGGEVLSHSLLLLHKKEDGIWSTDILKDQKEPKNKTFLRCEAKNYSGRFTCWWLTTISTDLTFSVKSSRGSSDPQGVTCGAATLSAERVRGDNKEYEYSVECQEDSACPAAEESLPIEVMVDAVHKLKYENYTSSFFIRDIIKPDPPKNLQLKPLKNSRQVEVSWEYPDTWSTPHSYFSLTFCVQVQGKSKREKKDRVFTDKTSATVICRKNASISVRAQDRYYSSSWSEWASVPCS
T1 sequence 2: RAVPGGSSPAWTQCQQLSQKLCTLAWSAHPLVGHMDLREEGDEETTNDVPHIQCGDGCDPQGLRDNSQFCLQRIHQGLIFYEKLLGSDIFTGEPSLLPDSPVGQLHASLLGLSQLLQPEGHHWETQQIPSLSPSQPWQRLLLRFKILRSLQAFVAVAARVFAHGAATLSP
measurement.notes: SPR screen, crude scFv captured via FLAG
Form field: koff (one value per entry).
Answer with a number only, understood to be in s⁻¹.

binder: scFv AY-G7 (scFv, scFv-80 variant: VL Y86H; not shown: proprietary C-terminal FLAG tag) scFv: QVQLVQSGAEVKKPGASVKVSCKASGYTFTDYYLHWVRQAPGQGLEWMGWIDPENGDTEYAPKFQGRVTMTTDTSTSTAYMELRSLRSDDTAVYYCNANKELRYFDVWGQGTMVTVSSGGGGSGGGGSGGGGSEIVMTQSPATLSVSPGERATLSCRASQSISINLHWYQQKPGQAPRLLIYFASQSISGIPARFSGSGSGTEFTLTISSLQSEDFAVHYCQQSNSFPLTFGGGTKVEIKR
reading.unit: s⁻¹
koff: 0.00012

Then this binder:
Inquiry: Endpoint output: koff of scFv AY-B2 (scFv, scFv-80 variant: VH M69V; not shown: proprietary C-terminal FLAG tag) scFv: QVQLVQSGAEVKKPGASVKVSCKASGYTFTDYYLHWVRQAPGQGLEWMGWIDPENGDTEYAPKFQGRVTVTTDTSTSTAYMELRSLRSDDTAVYYCNANKELRYFDVWGQGTMVTVSSGGGGSGGGGSGGGGSEIVMTQSPATLSVSPGERATLSCRASQSISINLHWYQQKPGQAPRLLIYFASQSISGIPARFSGSGSGTEFTLTISSLQSEDFAVYYCQQSNSFPLTFGGGTKVEIKR . Value?
Reply text: 0.0001

Each recorded value in this set is attributed to patent US20110262445A1.
